Provide the recorded MIC for the entries that follow.
Test system: vancomycin-resistant Enterococcus faecalis (VanA VRE, BM4166)
experimentSummary: microbe, parasite or virus in culture
Assay type: cell-based
reportedConditions: Enterococcus faecalis, VRE, read-out: MIC, Van A E. faecalis, serum concentration 100%
Description: Assays were carried out following the methods of Clinical and Laboratory Standards Institute; Methods for Dilution Antimicrobial Susceptibility Tests for Bacteria That Grow Aerobically; Approved Standard, […].; CLSI document M07-A8; Clinical and Laboratory Standards Institute: Wayne, Pa., 2009. […]
The reply should be a number in µg/mL, with the unit left off.

Considering CN[C@H](CC(C)C)C(=O)N[C@H]1C(=O)N[C@@H](CC(N)=O)C(=O)N[C@H]2C(=O)NC3C(=O)N[C@H](C(=O)N[C@H](C(=O)O)c4cc(O)cc(O)c4-c4cc3ccc4O)[C@H](O)c3ccc(c(Cl)c3)Oc3cc2cc(c3OC2OC(CO)C(O)[C@H](O)[C@@H]2O[C@H]2CC(C)(NCc3ccc(-c4ccc(Cl)cc4)cc3)[C@H](O)[C@H](C)O2)Oc2ccc(cc2Cl)[C@H]1O (stereo partly drawn) [Compound 4, N-4-(4′-chlorobiphenyl)methyl vancomycin, reference compound] , its MIC with vancomycin-resistant Enterococcus faecalis (VanA VRE, BM4166) was recorded as 10

Query CN[C@H](CC(C)C)C(=O)N[C@H]1C(=O)N[C@@H](CC(N)=O)C(=O)N[C@H]2C(=N)NC3C(=O)N[C@H](C(=O)N[C@H](C(=O)O)c4cc(O)cc(O)c4-c4cc3ccc4O)[C@H](O)c3ccc(c(Cl)c3)Oc3cc2cc(c3OC2OC(CO)C(O)[C@H](O)[C@@H]2O[C@H]2CC(C)(NCc3ccc(-c4ccc(Cl)cc4)cc3)[C@H](O)[C@H](C)O2)Oc2ccc(cc2Cl)[C@H]1O (stereo partly drawn) on vancomycin-resistant Enterococcus faecalis (VanA VRE, BM4166); MIC returned: 0.5

# value of MIC, vancomycin-resistant Enterococcus faecalis (VanA VRE, BM4166), item CN[C@H](CC(C)C)C(=O)N[C@H]1C(=O)N[C@@H](CC(N)=O)C(=O)N[C@H]2C(=S)NC3C(=O)N[C@H](C(=O)N[C@H](C(=O)O)c4cc(O)cc(O)c4-c4cc3ccc4O)[C@H](O)c3ccc(c(Cl)c3)Oc3cc2cc(c3OC2OC(CO)C(O)[C@H](O)[C@@H]2O[C@H]2CC(C)(NCc3ccc(-c4ccc(Cl)cc4)cc3)[C@H](O)[C@H](C)O2)Oc2ccc(cc2Cl)[C@H]1O (stereo partly drawn) = 8

Log: vancomycin-resistant Enterococcus faecalis (VanA VRE, BM4166), compound CN[C@H](CC(C)C)C(=O)N[C@H]1C(=O)N[C@@H](CC(N)=O)C(=O)N[C@H]2CNC3C(=O)N[C@H](C(=O)N[C@H](C(=O)O)c4cc(O)cc(O)c4-c4cc3ccc4O)[C@H](O)c3ccc(c(Cl)c3)Oc3cc2cc(c3OC2OC(CO)C(O)[C@H](O)[C@@H]2O[C@H]2CC(C)(N)[C@H](O)[C@H](C)O2)Oc2ccc(cc2Cl)[C@H]1O (stereo partly drawn) [Compound 16, [Ψ[CH2NH]Tpg^4]vancomycin] , MIC = 125

Source of measurements: patent US10577395B2
